# MEASUREMENT TARGET: F80G CDK2 (Homo sapiens, UniProt P24941, F80G)
# PROCEDURE DETAILS: In vitro inhibition of phosphorylation of an exogenous substrate, kinase panel
QUANTITY KIND: IC50
Note to self: number, then unit, no commentary.

Reported IC50 of "CC(C)(C)n1nc(Cc2cccc3ccccc23)c2c(N)ncnc21" : 5 nM

====

# MEASUREMENT TARGET: I338G v-Src (Rous sarcoma virus subgroup A, UniProt P00524, DEL77-225/I338G)
# Construct: catalytic domain of the target kinase, I338G v-Src, which was expressed in bacteria and purified as a glutathione-S-transferase (GST) fusion protein; made in house; host or cells: E. coli DH5a, pGEX-KT
# PROCEDURE DETAILS: biochemical
# Format: biochemical
# PROTOCOL CONDITIONS: read-out: IC50
QUANTITY KIND: IC50 (nM)
Please respond with the number in nM and leave the unit unwritten.

Reported IC50 of "CC(C)(C)c1ccc(C(=O)Nc2ncnc3c2c(-c2ccccc2)nn3C(C)(C)C)cc1" : 430

====

# MEASUREMENT TARGET: Cdc28·MBP-C1b2 (Saccharomyces cerevisiae)
# Construct: His6 (C); made in house; host or cells: Sf9 insect cells, baculovirus, co-infected with Cak1-HA3 (Cdc28-His6); bacteria (MBP-Clb2)
# PROCEDURE DETAILS: 1-NM-PP1 IC50, Histone H1 phosphorylation
# Format: biochemical
# PROTOCOL CONDITIONS: 1 mM ATP, text b306; read-out: IC50
# Experimental: Purification of Cdc28-His6, Cdc28-as1-His6, MBP-Clb2: Lysate was prepared from insect cells co-infected with baculoviruses encoding Cdc28-His6 or Cdc28-as1-His6 and Cak1-HA3 (151). Cdc28-His6 and Cdc28-as1-His6 were purified by metal affinity chromatography as described (152), followed by anion-exchange (Pharmacia SP Sepharose Fast Flow) and cation-exchange (Pharmacia Q Sepharose Fast Flow). […] Phosphate incorporation was determined at each inhibitor concentration by scintillation counting.
QUANTITY KIND: pIC50
Please treat pIC50 as minus the base-10 logarithm of the molar concentration.

Reported pIC50 of "CC(C)(C)n1nc(Cc2cccc3ccccc23)c2c(N)ncnc21" : 4.36

====

# MEASUREMENT TARGET: I338G v-Src (Rous sarcoma virus subgroup A, UniProt P00524, DEL77-225/I338G)
# Construct: catalytic domain of the target kinase, I338G v-Src, which was expressed in bacteria and purified as a glutathione-S-transferase (GST) fusion protein; made in house; host or cells: E. coli DH5a, pGEX-KT
# PROCEDURE DETAILS: biochemical
# Type: biochemical
# PROTOCOL CONDITIONS: text b249; read-out: IC50
QUANTITY KIND: IC50 (nM)
Please respond with the number in nM and leave the unit unwritten.

The compound "CC(C)(C)c1ccc(C(=O)Nc2ncnc3c2c(-c2ccccc2)nn3C(C)(C)C)cc1" , when measured on I338G v-Src (Rous sarcoma virus subgroup A, UniProt P00524, DEL77-225/I338G), yielded IC50 of 430

====

# MEASUREMENT TARGET: Cdc28-as1·MBP-C1b2 (Saccharomyces cerevisiae, UniProt P00546, F88G)
# Sequence (P00546 whole entry F88G): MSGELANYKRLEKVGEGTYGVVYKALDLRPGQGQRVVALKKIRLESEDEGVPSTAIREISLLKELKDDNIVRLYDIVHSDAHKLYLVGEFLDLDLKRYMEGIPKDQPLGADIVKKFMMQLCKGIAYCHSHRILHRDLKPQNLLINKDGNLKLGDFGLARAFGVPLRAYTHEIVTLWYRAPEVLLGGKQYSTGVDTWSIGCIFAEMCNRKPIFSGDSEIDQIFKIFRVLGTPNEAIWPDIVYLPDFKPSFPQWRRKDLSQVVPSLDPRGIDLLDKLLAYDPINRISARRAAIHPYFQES
# Sequence (P24869 whole entry, further chain): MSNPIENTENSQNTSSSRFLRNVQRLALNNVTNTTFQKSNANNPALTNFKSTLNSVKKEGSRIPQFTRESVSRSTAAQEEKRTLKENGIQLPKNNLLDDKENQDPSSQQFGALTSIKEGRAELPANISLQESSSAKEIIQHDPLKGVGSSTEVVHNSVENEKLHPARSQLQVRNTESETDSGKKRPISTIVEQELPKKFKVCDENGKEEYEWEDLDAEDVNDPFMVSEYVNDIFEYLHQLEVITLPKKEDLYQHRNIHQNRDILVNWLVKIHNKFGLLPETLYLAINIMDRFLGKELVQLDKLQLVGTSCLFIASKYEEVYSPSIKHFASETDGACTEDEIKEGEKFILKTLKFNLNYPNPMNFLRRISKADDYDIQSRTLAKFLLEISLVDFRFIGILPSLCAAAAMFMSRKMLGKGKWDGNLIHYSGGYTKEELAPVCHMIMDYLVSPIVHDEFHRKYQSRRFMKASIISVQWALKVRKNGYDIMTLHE
# PROCEDURE DETAILS: 1-NM-PP1 IC50, Histone H1 phosphorylation
# Assay type: biochemical
# Parameters: His6 (C); made in house; host or cells: Sf9 insect cells, baculovirus, co-infected with Cak1-HA3 (Cdc28-as1-His6); bacteria (MBP-Clb2)
# PROTOCOL CONDITIONS: IC50, text b289
QUANTITY KIND: IC50 (nM)
Please respond with the number in nM and leave the unit unwritten.

The compound "CC(C)(C)n1nc(Cc2cccc3ccccc23)c2c(N)ncnc21" , when measured on Cdc28-as1·MBP-C1b2 (Saccharomyces cerevisiae, UniProt P00546, F88G), yielded IC50 of 3.9
